- measurement target: m1 muscarinic receptor (Homo sapiens)
- experiment notes: biochemical
- Type: binding
- measurement conditions: read-out: [3H]QNB Binding Ki(μM) m1
observed property: Ki (µM)

{"compound": "CCCCCCSc1nccnc1S[C@@H]1CN2CC[C@@H]1C2 (relative stereo) [Example 12]", "reported": 0.03}

====

- measurement target: m1 muscarinic receptor (Homo sapiens)
- experiment notes: biochemical
- Assay type: binding
observed property: Ki (nM)

{"compound": "CCCCCCOc1nccnc1O[C@H]1CN2CC[C@@H]1C2 (single isomer, unassigned)", "unit spec": "nM", "reported": 32}

====

// reported Ki per item
- measurement target: m2 muscarinic receptor (Homo sapiens)
- experiment notes: biochemical
- Type: binding
- measurement conditions: m2, cloned human receptors in CHO cells; read-out: [3H]QNB Binding Ki(μM) m2
observed property: Ki (µM)

{"molecule": "CCCCCCSc1nccnc1O[C@@H]1CN2CC[C@@H]1C2 (single isomer, unassigned) [Example 8]", "unit spec": "µM", "reported": 0.008}
{"molecule": "CCCCCCSc1nccnc1O[C@H]1CN2CC[C@@H]1C2 (relative stereo) [Example 2]", "unit spec": "µM", "reported": 0.013}
{"molecule": "CCCCCCSc1nccnc1O[C@H]1CN2CC[C@@H]1C2 (single isomer, unassigned) [2(+)]", "unit spec": "µM", "reported": 0.063}
{"molecule": "CCCCCCSc1nccnc1O[C@@H]1CN2CC[C@@H]1C2 (relative stereo) [Example 6]", "unit spec": "µM", "reported": 0.088}
{"molecule": "CCCCCCSc1nccnc1O[C@@H]1CN2CC[C@@H]1C2 (single isomer, unassigned) [Example 7]", "unit spec": "µM", "reported": 0.059}
{"molecule": "CCCCCCSc1nccnc1O[C@H]1CN2CC[C@@H]1C2 (single isomer, unassigned) [Example 2(-)]", "unit spec": "µM", "reported": 0.0045}

====

- measurement target: UniProtKB P11229
- experiment notes: stimulation of phosphoinositide (PI) hydrolysis in CHO cells expressing M1 acetylcholine receptors
- Assay type: cell-based
- Description: The tubes are incubated for one hour at 37° C. The reaction is quenched with chloroform and the phosphatidyl inositols are extracted with methanol and chloroform. Phase separation is assured with the addition of methanol and water followed by centrifugation. The tritiated inositol phosphates are recovered on BioRad AG 1-X8 anion exchange resin in the formate cycle. […]
observed property: EC50 (nM)

{"compound": "CCCCCCOc1nccnc1O[C@H]1CN2CC[C@@H]1C2 (single isomer, unassigned)", "observed property": "EC50", "unit spec": "nM", "reported": 5.5}

====

// reported Ki per item
- measurement target: m2 muscarinic receptor (Homo sapiens, UniProt P08172)
- Sequence (P08172 1-466): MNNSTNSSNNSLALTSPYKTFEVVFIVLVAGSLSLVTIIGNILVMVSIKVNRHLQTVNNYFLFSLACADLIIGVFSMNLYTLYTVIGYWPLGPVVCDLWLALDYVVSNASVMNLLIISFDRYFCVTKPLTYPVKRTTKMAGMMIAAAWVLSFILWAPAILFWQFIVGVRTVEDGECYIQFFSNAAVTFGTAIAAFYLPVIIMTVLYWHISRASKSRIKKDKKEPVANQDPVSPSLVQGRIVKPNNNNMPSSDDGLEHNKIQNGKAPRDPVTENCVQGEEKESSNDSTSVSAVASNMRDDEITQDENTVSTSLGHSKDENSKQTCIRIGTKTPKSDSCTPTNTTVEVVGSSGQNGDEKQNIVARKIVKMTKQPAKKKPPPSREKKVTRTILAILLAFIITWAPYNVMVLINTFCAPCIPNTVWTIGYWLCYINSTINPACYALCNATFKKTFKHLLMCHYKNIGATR
- experiment notes: biochemical
- Type: binding
- measurement conditions: read-out: [3H]QNB Binding Ki(μM) m2

{"compound": "CCCCCCSc1nccnc1S[C@@H]1CN2CC[C@@H]1C2 (relative stereo)", "Ki": "0.064 µM"}
{"compound": "CCCCCCOc1nccnc1O[C@H]1CN2CC[C@@H]1C2 (relative stereo) [Example 1]", "Ki": "0.02 µM"}
{"compound": "CCCCCCOc1nccnc1O[C@H]1CN2CC[C@@H]1C2 (single isomer, unassigned) [Example 4]", "Ki": "0.024 µM"}
{"compound": "CCCCCCOc1nccnc1O[C@@H]1CN2CC[C@@H]1C2 (single isomer, unassigned) [Example 10]", "Ki": "0.149 µM"}
{"compound": "CCCCCCOc1nccnc1O[C@@H]1CN2CC[C@@H]1C2 (single isomer, unassigned) [Example 9]", "Ki": "0.774 µM"}
{"compound": "CCCCCCOc1nccnc1O[C@H]1CN2CC[C@@H]1C2 (single isomer, unassigned) [Example 5]", "Ki": "0.071 µM"}

====

- measurement target: m1 muscarinic receptor (Homo sapiens, UniProt P11229)
- Sequence (P11229 1-460): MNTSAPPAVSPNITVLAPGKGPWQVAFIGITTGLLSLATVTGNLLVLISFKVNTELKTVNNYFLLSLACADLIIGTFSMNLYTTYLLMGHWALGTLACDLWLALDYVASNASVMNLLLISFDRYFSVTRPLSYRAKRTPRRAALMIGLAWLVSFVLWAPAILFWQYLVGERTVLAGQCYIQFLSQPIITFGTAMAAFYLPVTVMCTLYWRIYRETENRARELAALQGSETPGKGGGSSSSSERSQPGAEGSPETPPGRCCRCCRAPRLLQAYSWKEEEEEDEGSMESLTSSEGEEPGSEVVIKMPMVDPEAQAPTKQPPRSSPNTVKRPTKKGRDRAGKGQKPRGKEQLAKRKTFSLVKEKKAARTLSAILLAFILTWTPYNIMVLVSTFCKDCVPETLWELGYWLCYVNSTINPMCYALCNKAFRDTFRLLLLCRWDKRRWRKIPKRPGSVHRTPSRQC
- experiment notes: biochemical
- Format: binding
- measurement conditions: m1, cloned human receptors in CHO cells; read-out: [3H]QNB Binding Ki(μM) m1

{"compound": "CCCCCCSc1nccnc1O[C@H]1CN2CC[C@@H]1C2 (single isomer, unassigned) [2(+)]", "Ki / µM": 0.027}
{"compound": "CCCCCCOc1nccnc1S[C@@H]1CN2CC[C@@H]1C2 (relative stereo)", "Ki / µM": 0.292}
{"compound": "CCCCCCOc1nccnc1O[C@H]1CN2CC[C@@H]1C2 (relative stereo) [Example 1]", "Ki / µM": 0.03}
{"compound": "CCCCCCSc1nccnc1O[C@@H]1CN2CC[C@@H]1C2 (relative stereo)", "Ki / µM": 0.123}
{"compound": "CCCCCCSc1nccnc1O[C@H]1CN2CC[C@@H]1C2 (relative stereo) [Example 2]", "Ki / µM": 0.0067}
{"compound": "CCCCCCOc1nccnc1O[C@H]1CN2CC[C@@H]1C2 (single isomer, unassigned) [Example 5]", "Ki / µM": 0.083}

====

- measurement target: M1 acetylcholine receptors (Homo sapiens, UniProt P11229)
- Sequence (P11229 1-460): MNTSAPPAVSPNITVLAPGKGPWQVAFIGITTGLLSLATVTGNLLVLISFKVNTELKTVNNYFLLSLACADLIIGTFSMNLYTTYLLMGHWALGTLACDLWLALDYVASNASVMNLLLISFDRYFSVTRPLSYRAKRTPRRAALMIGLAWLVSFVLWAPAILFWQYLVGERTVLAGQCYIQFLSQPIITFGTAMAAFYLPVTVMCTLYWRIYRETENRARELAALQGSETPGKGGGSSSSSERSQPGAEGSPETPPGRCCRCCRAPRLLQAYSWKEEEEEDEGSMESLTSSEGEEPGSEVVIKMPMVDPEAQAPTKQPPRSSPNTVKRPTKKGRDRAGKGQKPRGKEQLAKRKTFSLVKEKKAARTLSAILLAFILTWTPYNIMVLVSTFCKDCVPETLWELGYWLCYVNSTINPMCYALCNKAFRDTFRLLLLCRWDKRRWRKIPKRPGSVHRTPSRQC
- experiment notes: stimulation of phosphoinositide (PI) hydrolysis in CHO cells expressing M1 acetylcholine receptors
- Type: cell-based
- measurement conditions: read-out: m1 agonism [P.I.] EC50
- Description: The tubes are incubated for one hour at 37° C. The reaction is quenched with chloroform and the phosphatidyl inositols are extracted with methanol and chloroform. Phase separation is assured with the addition of methanol and water followed by centrifugation. The tritiated inositol phosphates are recovered on BioRad AG 1-X8 anion exchange resin in the formate cycle. […]
observed property: EC50 (nM)

{"molecule": "CCCCCCSc1nccnc1O[C@H]1CN2CC[C@@H]1C2 (single isomer, unassigned) [Example 2(-)]", "measurement target": "M1 acetylcholine receptors (Homo sapiens, UniProt P11229)", "reported": 0.4}
{"molecule": "CCCCCCSc1nccnc1O[C@@H]1CN2CC[C@@H]1C2 (single isomer, unassigned)", "measurement target": "M1 acetylcholine receptors (Homo sapiens, UniProt P11229)", "reported": 10.3}
